Target: MERTK (Homo sapiens)
Construct: purchased Eurofins DiscoverX KINOMEscan (scanTK)
Sequence (Q12866 21-999): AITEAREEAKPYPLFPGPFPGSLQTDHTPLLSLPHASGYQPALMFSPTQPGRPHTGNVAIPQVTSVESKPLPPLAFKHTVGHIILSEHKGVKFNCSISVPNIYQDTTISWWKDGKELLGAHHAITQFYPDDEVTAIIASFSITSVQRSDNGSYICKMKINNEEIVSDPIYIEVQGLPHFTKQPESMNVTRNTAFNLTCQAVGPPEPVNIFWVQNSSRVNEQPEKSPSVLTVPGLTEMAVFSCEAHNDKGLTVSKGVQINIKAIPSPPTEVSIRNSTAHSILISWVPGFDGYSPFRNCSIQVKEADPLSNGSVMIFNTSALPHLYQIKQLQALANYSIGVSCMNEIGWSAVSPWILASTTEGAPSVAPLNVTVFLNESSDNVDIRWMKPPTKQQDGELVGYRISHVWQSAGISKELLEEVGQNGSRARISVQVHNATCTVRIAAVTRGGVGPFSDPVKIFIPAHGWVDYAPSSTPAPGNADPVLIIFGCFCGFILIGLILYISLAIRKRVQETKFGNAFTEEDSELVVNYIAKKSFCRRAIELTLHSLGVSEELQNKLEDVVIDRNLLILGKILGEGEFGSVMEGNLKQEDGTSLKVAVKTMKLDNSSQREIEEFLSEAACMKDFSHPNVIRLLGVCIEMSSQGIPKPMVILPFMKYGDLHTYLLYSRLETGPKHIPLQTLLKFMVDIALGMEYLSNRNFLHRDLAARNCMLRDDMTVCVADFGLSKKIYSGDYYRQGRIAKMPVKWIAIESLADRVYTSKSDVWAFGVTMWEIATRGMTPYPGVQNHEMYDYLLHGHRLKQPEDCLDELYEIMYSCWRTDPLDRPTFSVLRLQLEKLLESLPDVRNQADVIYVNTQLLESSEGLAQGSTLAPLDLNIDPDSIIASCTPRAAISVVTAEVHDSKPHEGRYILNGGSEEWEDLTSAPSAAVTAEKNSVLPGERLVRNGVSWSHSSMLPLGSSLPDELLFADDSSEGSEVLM
Assay: KINOMEscan ScanTK
Type: binding
Settings: @1000nM, read-out: %Control
attribute_measured: remaining binding at 1 µM

Consider the reported remaining binding at 1 µM for these compounds:
C=CC(=O)N1CCC[C@@H](n2nc(-c3ccc(Oc4ccccc4)cc3)c3c(N)ncnc32)C1 [Compound 1g, Ibrutinib, reference compound] | 38%
CCOC(=O)c1cnc(S(C)(=O)=O)nc1N1CCC[C@@H](n2nc(-c3ccc(Oc4ccccc4)cc3)c3c(N)ncnc32)C1 | 71%

Cc1cnc(S(C)(=O)=O)nc1N1CCCC(n2nc(-c3ccc(Oc4ccccc4)cc3)c3c(N)ncnc32)C1 (centres unmarked) yielded remaining binding at 1 µM of 60%

Recorded remaining binding at 1 µM (compound CNC(=O)c1cnc(S(C)(=O)=O)nc1N1CCCC(n2nc(-c3ccc(Oc4ccccc4)cc3)c3c(N)ncnc32)C1 (centres unmarked) ): 49%

Reported remaining binding at 1 µM ( COC(=O)c1cnc(S(C)(=O)=O)nc1N1CCCC(n2nc(-c3ccc(Oc4ccccc4)cc3)c3c(N)ncnc32)C1 (centres unmarked) ) = 67%

###

Molecular target: ERBB2 (Homo sapiens)
Construct: purchased Eurofins DiscoverX KINOMEscan (scanTK)
Sequence (P04626 23-1255): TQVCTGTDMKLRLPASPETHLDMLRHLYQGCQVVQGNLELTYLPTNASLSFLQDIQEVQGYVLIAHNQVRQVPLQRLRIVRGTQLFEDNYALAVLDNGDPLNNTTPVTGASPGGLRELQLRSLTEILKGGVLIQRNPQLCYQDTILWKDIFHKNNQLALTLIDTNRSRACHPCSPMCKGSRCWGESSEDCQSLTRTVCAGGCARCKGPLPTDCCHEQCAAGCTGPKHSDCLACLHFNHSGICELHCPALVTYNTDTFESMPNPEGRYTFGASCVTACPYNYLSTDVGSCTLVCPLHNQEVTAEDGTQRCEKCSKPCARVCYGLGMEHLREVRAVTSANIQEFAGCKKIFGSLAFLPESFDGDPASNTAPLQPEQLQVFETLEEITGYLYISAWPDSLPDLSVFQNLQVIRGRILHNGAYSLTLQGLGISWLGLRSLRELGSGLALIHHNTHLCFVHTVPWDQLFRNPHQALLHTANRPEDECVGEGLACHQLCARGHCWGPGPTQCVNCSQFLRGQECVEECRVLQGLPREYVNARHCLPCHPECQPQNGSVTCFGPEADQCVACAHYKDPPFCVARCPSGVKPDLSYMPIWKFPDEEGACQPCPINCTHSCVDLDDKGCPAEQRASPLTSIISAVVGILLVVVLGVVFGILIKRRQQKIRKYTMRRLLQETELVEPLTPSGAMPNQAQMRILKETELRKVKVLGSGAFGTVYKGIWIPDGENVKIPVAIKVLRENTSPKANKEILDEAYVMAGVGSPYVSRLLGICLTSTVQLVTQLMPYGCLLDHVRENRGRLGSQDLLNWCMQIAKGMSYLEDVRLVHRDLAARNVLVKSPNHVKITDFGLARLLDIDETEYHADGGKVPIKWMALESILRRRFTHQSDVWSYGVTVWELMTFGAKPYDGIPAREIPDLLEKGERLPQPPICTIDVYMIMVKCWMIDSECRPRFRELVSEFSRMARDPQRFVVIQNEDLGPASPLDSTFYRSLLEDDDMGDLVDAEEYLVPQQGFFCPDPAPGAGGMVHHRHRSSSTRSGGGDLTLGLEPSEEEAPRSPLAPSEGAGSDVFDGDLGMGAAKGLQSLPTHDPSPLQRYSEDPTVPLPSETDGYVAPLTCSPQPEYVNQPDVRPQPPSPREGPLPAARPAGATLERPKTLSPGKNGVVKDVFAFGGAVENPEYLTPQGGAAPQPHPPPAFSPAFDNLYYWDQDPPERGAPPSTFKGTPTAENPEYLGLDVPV
Test: KINOMEscan ScanTK
Format: binding
Conditions: @1000nM; ERBB2
attribute_measured: difference in %Control versus compound Ib at 1 µM

Completed entries (count: 3):
Cc1cnc(S(C)(=O)=O)nc1N1CCCC(n2nc(-c3ccc(Oc4ccccc4)cc3)c3c(N)ncnc32)C1 (stereo not shown) [Compound 8a] | 53%
CNC(=O)c1cnc(S(C)(=O)=O)nc1N1CCCC(n2nc(-c3ccc(Oc4ccccc4)cc3)c3c(N)ncnc32)C1 (stereo not shown) [Compound 8d] | 5.5%
CCOC(=O)c1cnc(S(C)(=O)=O)nc1N1CCC[C@@H](n2nc(-c3ccc(Oc4ccccc4)cc3)c3c(N)ncnc32)C1 [Compound 8c] | 48%

Let us examine a further case.
Query COC(=O)c1cnc(S(C)(=O)=O)nc1N1CCCC(n2nc(-c3ccc(Oc4ccccc4)cc3)c3c(N)ncnc32)C1 (stereo not shown) [Compound 8b] yields difference in %Control versus compound Ib at 1 µM of 41%

###

Target: FLT3 (Homo sapiens, UniProt P36888)
Construct: purchased Eurofins DiscoverX KINOMEscan (scanTK)
Sequence (P36888 27-993): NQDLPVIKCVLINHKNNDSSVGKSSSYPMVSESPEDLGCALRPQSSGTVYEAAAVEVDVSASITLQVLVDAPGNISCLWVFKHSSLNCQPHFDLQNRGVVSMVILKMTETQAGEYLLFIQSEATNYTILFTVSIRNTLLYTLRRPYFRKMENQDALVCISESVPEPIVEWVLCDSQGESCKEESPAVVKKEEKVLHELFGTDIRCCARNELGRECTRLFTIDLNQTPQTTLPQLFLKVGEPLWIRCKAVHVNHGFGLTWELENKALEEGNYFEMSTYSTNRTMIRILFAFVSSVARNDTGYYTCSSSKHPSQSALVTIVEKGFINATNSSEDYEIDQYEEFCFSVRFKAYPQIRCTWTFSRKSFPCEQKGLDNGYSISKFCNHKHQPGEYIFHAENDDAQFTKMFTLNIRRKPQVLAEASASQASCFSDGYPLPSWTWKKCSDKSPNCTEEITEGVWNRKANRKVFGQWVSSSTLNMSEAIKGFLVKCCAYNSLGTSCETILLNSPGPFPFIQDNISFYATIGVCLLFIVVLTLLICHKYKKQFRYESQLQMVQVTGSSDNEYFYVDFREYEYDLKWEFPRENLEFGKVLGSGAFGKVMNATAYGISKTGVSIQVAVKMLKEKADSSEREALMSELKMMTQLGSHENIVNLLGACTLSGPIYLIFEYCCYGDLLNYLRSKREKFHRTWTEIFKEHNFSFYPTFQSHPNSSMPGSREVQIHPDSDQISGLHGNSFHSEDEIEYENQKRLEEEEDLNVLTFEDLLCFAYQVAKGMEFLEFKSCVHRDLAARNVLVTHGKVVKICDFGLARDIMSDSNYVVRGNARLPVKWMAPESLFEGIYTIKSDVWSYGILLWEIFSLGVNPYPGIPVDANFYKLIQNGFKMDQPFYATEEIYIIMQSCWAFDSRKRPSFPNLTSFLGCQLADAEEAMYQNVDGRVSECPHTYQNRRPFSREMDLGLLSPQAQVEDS
Assay: KINOMEscan ScanTK
Assay type: binding
Details: @1000nM
attribute_measured: difference in %Control from compound Ib at 1 µM (%)
Report as a plain number; the unit % is understood.

CCOC(=O)c1cnc(S(C)(=O)=O)nc1N1CCC[C@@H](n2nc(-c3ccc(Oc4ccccc4)cc3)c3c(N)ncnc32)C1 | 60
COC(=O)c1cnc(S(C)(=O)=O)nc1N1CCCC(n2nc(-c3ccc(Oc4ccccc4)cc3)c3c(N)ncnc32)C1 (stereo not shown) | 47
Cc1cnc(S(C)(=O)=O)nc1N1CCCC(n2nc(-c3ccc(Oc4ccccc4)cc3)c3c(N)ncnc32)C1 (stereo not shown) | 21

Now for another entry.
Value of measured difference in %Control from compound Ib at 1 µM for the entry CNC(=O)c1cnc(S(C)(=O)=O)nc1N1CCCC(n2nc(-c3ccc(Oc4ccccc4)cc3)c3c(N)ncnc32)C1 (stereo not shown) : 32

###

Reported remaining binding at 1 µM by item:
Target: LYN (Homo sapiens)
Construct: purchased Eurofins DiscoverX KINOMEscan (scanTK)
Sequence (P07948 whole entry): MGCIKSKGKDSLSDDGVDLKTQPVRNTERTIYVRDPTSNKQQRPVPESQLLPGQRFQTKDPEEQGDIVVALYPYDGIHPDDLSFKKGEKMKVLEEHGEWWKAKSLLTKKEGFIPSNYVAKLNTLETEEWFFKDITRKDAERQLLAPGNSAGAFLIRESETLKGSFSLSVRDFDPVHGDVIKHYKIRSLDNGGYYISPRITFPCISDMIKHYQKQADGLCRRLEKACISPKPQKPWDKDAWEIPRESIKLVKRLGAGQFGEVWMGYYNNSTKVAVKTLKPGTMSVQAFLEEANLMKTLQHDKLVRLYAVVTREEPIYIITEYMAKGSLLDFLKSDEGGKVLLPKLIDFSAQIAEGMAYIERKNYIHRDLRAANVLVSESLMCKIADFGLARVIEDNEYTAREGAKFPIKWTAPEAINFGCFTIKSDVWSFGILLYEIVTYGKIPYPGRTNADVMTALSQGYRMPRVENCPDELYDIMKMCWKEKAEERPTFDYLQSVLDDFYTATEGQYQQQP
Experiment: KINOMEscan ScanTK
Assay type: binding
Conditions: @1000nM, read-out: %Control

Consider the reported remaining binding at 1 µM for these compounds:
COC(=O)c1cnc(S(C)(=O)=O)nc1N1CCCC(n2nc(-c3ccc(Oc4ccccc4)cc3)c3c(N)ncnc32)C1 (centres unmarked) [Compound 8b] | 49%
C=CC(=O)N1CCC[C@@H](n2nc(-c3ccc(Oc4ccccc4)cc3)c3c(N)ncnc32)C1 [Compound 1g, Ibrutinib, reference compound] | 16%
CNC(=O)c1cnc(S(C)(=O)=O)nc1N1CCCC(n2nc(-c3ccc(Oc4ccccc4)cc3)c3c(N)ncnc32)C1 (centres unmarked) [Compound 8d] | 43%
Cc1cnc(S(C)(=O)=O)nc1N1CCCC(n2nc(-c3ccc(Oc4ccccc4)cc3)c3c(N)ncnc32)C1 (centres unmarked) [Compound 8a] | 21%

Consider CCOC(=O)c1cnc(S(C)(=O)=O)nc1N1CCC[C@@H](n2nc(-c3ccc(Oc4ccccc4)cc3)c3c(N)ncnc32)C1 [Compound 8c] . Its measured remaining binding at 1 µM is 72%

###

Target: FGFR3(G697C) (Homo sapiens, UniProt P22607, G697C)
Construct: purchased Eurofins DiscoverX KINOMEscan (scanTK)
Sequence (P22607 23-806 G697C): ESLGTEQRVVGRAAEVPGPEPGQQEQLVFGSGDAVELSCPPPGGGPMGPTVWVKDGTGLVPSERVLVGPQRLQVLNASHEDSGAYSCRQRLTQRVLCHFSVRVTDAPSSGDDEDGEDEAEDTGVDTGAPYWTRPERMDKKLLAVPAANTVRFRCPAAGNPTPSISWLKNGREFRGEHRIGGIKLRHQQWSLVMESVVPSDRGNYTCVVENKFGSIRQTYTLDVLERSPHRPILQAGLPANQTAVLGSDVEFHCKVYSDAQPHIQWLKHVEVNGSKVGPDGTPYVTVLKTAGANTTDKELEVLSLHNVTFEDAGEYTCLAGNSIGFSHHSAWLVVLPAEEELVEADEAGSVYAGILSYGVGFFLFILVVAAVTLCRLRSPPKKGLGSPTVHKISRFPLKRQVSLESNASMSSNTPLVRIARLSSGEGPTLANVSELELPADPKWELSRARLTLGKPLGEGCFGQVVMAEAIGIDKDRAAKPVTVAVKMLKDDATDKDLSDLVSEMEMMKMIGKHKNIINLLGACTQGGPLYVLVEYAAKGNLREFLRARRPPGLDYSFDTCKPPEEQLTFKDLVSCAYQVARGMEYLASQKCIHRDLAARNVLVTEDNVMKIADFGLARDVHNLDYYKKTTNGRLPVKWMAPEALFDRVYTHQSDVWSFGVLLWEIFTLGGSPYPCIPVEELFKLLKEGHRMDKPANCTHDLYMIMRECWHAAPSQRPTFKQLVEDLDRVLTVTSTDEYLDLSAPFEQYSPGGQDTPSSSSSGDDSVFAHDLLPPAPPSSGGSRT
Experiment: KINOMEscan ScanTK
Type: binding
Details: @1000nM, read-out: %Control
Rule: measured remaining binding at 1 µM below 90% gets yes (1); anything equal to or greater than 90% gets no (0).

Cc1cnc(S(C)(=O)=O)nc1N1CCCC(n2nc(-c3ccc(Oc4ccccc4)cc3)c3c(N)ncnc32)C1 (centres unmarked) | no (0)
CNC(=O)c1cnc(S(C)(=O)=O)nc1N1CCCC(n2nc(-c3ccc(Oc4ccccc4)cc3)c3c(N)ncnc32)C1 (centres unmarked) | yes (1)
C=CC(=O)N1CCC[C@@H](n2nc(-c3ccc(Oc4ccccc4)cc3)c3c(N)ncnc32)C1 [Compound 1g, Ibrutinib, reference compound] | yes (1)

Consider now this further compound.
remaining binding at 1 µM under 90%? Item: COC(=O)c1cnc(S(C)(=O)=O)nc1N1CCCC(n2nc(-c3ccc(Oc4ccccc4)cc3)c3c(N)ncnc32)C1 (centres unmarked)
yes (1)

###

Biological target: INSRR (Homo sapiens, UniProt P14616)
Construct: purchased Eurofins DiscoverX KINOMEscan (scanTK)
Sequence (P14616 27-1297): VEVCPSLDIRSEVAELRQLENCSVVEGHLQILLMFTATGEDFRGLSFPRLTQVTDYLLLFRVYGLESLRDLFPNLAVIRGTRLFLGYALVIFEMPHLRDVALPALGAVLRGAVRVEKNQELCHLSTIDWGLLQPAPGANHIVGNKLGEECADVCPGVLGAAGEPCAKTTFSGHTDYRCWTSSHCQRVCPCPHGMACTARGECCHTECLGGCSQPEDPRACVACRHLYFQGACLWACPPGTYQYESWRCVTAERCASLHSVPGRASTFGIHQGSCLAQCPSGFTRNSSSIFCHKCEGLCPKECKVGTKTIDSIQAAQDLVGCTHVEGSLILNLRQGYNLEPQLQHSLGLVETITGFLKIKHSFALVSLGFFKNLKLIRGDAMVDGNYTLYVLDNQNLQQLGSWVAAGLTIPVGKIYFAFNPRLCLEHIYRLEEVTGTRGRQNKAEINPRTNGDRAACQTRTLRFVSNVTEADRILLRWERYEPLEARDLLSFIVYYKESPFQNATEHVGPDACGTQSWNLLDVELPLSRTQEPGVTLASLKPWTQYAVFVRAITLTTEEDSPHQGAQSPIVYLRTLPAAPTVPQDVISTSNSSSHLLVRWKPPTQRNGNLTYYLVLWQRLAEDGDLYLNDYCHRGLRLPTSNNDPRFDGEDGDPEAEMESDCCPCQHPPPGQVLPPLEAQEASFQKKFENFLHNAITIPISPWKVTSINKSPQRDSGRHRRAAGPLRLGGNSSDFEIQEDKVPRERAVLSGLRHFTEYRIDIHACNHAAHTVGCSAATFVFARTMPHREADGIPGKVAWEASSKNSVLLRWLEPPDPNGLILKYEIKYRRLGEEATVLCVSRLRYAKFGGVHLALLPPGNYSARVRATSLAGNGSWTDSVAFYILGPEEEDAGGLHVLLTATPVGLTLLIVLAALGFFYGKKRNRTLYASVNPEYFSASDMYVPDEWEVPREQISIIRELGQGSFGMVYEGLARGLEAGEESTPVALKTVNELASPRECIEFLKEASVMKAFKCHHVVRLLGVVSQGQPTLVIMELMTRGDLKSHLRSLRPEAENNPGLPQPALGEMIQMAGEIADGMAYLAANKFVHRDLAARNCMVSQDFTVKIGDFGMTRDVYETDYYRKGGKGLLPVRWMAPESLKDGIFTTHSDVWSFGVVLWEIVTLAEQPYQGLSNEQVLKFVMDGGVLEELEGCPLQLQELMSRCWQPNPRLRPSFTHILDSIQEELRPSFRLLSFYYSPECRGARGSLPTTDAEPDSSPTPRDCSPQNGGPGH
Assay: KINOMEscan ScanTK
Assay type: binding
Conditions: @1000nM, read-out: %Control
The entries below come with measured remaining binding at 1 µM values attached.
State the answer as a number, implicitly in %.

CNC(=O)c1cnc(S(C)(=O)=O)nc1N1CCCC(n2nc(-c3ccc(Oc4ccccc4)cc3)c3c(N)ncnc32)C1 (stereo not shown) | 88
COC(=O)c1cnc(S(C)(=O)=O)nc1N1CCCC(n2nc(-c3ccc(Oc4ccccc4)cc3)c3c(N)ncnc32)C1 (stereo not shown) | 96
Cc1cnc(S(C)(=O)=O)nc1N1CCCC(n2nc(-c3ccc(Oc4ccccc4)cc3)c3c(N)ncnc32)C1 (stereo not shown) | 94

Shift focus to the following entry.
get_value(item= CCOC(=O)c1cnc(S(C)(=O)=O)nc1N1CCC[C@@H](n2nc(-c3ccc(Oc4ccccc4)cc3)c3c(N)ncnc32)C1 , readout=remaining binding at 1 µM) returns 87

###

Target: EGFR(G719C) (Homo sapiens, UniProt P00533, G719C)
Construct: purchased Eurofins DiscoverX KINOMEscan (scanTK)
Experiment: KINOMEscan ScanTK
Format: binding
Settings: @1000nM, read-out: %Control
attribute_measured: remaining binding at 1 µM (%)
Record the value in %, omitting the unit from your answer.

COC(=O)c1cnc(S(C)(=O)=O)nc1N1CCCC(n2nc(-c3ccc(Oc4ccccc4)cc3)c3c(N)ncnc32)C1 (stereo not shown) [Compound 8b] | 2.8
CNC(=O)c1cnc(S(C)(=O)=O)nc1N1CCCC(n2nc(-c3ccc(Oc4ccccc4)cc3)c3c(N)ncnc32)C1 (stereo not shown) [Compound 8d] | 0.65
CCOC(=O)c1cnc(S(C)(=O)=O)nc1N1CCC[C@@H](n2nc(-c3ccc(Oc4ccccc4)cc3)c3c(N)ncnc32)C1 [Compound 8c] | 7.5

The record that follows has no remaining binding at 1 µM shown yet.
According to the records, this compound Cc1cnc(S(C)(=O)=O)nc1N1CCCC(n2nc(-c3ccc(Oc4ccccc4)cc3)c3c(N)ncnc32)C1 (stereo not shown) [Compound 8a] displays remaining binding at 1 µM of 34
